Experiment: Stability in simulated gastric fluid
Format: in vitro ADME
Conditions: 2 μM peptidomimetic, simulated gastric fluid pH 1.5, 37° C., 24 h
Non-standard residues stand in square brackets, D forms with d. Residues, ends and D or L forms follow the SMILES beside them. ξ: configuration not given here. ξBip(2'-Et-4'-OMe) = CCc1cc(OC)ccc1-c1ccc(CC(N)C(=O)O)cc1; ξNva(5-(3-Cl-Ph)) = NC(CCCc1cccc(Cl)c1)C(=O)O; Ac5c = NC1(C(=O)O)CCCC1
Assay readout: % degradation of peptidomimetics in 24 h when incubated with simulated gastric fluid (%)

Molecule	Quantitative readout
CCc1cc(OC)ccc1-c1ccc(CC(NC(=O)[C@H](CC(=O)O)NC(=O)[C@H](CO)NC(=O)[C@@H](NC(=O)[C@H](Cc2ccccc2)NC(=O)[C@@H](NC(=O)CNC(=O)C(CCC#N)NC(=O)C(C)(C)NC(=O)[C@@H](N)Cc2c[nH]cn2)[C@@H](C)O)[C@@H](C)O)C(=O)NC(CCCc2ccccc2F)C(N)=O)cc1 (single isomer, unassigned)	100
CCc1cc(OC)ccc1-c1ccc(CC(NC(=O)[C@H](CC(=O)O)NC(=O)[C@H](CO)NC(=O)[C@@H](NC(=O)[C@H](Cc2ccccc2)NC(=O)[C@@H](NC(=O)CNC(=O)[C@H](CCC(N)=O)NC(=O)C2(NC(=O)[C@@H](N)Cc3c[nH]cn3)CCCC2)[C@@H](C)O)[C@@H](C)O)C(=O)NC(CCCc2cccc(Cl)c2)C(N)=O)cc1 (stereo partly shown) [compound 27] (H-H[Ac5c]QGTFTSD[ξBip(2'-Et-4'-OMe)][ξNva(5-(3-Cl-Ph))]-NH2)	00
CCc1cc(OC)ccc1-c1ccc(CC(NC(=O)[C@H](CC(=O)O)NC(=O)[C@H](CO)NC(=O)[C@@H](NC(=O)C(C)(Cc2ccccc2F)NC(=O)[C@@H](NC(=O)CNC(=O)C(CCC#N)NC(=O)C(C)(C)NC(=O)[C@@H](N)Cc2c[nH]cn2)[C@H](C)O)[C@H](C)O)C(=S)NC(CCCc2ccccc2)C(N)=O)cc1 (single isomer, unassigned)	15
CCc1cc(OC)ccc1-c1ccc(CC(NC(=O)[C@H](CC(=O)O)NC(=O)[C@H](CO)NC(=O)[C@@H](NC(=O)[C@H](Cc2ccccc2)NC(=O)[C@@H](NC(=O)CNC(=O)[C@H](CCC(N)=O)NC(=O)C2(NC(=O)[C@@H](N)Cc3c[nH]cn3)CC2)[C@@H](C)O)[C@@H](C)O)C(=O)NC(CCCc2ccc(F)cc2F)C(N)=O)cc1 (single isomer, unassigned)	14
